The following compounds are listed with their measured IC50 values.
biological target: Prostaglandin G/H synthase 1 (Homo sapiens, UniProt P23219); test: Tested in vitro for inhibition against Prostaglandin G/H synthase 1 in human blood
Sequence (P23219 whole entry): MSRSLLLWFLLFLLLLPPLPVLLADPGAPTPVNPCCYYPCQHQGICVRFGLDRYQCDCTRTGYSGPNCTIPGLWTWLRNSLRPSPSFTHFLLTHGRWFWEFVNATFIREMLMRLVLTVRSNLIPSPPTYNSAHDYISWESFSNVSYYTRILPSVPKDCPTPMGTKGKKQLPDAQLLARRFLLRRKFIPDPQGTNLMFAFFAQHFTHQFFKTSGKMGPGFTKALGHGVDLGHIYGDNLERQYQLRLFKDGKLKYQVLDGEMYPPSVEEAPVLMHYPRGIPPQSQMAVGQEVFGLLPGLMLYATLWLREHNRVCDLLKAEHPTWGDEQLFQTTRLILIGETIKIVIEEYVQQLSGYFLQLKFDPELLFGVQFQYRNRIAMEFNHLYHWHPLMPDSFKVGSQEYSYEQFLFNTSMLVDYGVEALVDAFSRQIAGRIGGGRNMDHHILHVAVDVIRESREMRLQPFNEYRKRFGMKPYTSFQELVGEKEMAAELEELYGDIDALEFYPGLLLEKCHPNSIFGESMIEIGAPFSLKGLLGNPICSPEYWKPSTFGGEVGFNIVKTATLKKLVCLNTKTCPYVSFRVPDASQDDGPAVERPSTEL
readout: IC50

[[record]]
smiles_record = "Fc1ccc(-c2[nH]c(-c3ccc(F)cc3)c3c2C2CCC3CC2)cc1"
tested_on = "Prostaglandin G/H synthase 1 (Homo sapiens, UniProt P23219)"
readout = "IC50"
readout_value = "30 µM"

[[record]]
smiles_record = "Fc1ccc(-c2[nH]c(-c3ccc(F)cc3)c3c2C2CCC3C2)cc1"
tested_on = "Prostaglandin G/H synthase 1 (Homo sapiens, UniProt P23219)"
readout = "IC50"
readout_value = "1 µM"


---

Recorded ED50, one value per entry.
organism: Mus musculus; experiment: Compound was evaluated for its effective dose to inhibit gastric PGE-2; type: tissue-based; details: Stomach
readout: ED50 (mg/kg)

[[record]]
smiles_record = "c1ccc(-c2[nH]c(-c3ccccc3)c3c2CCCC3)cc1"
result_operator = "="
readout_value = 50

[[record]]
smiles_record = "Fc1ccc(-c2[nH]c(-c3ccc(F)cc3)c3c2C2CCC3C2)cc1"
result_operator = ">"
readout_value = 40

[[record]]
smiles_record = "c1ccc(-c2[nH]c(-c3ccccc3)c3c2CCC3)cc1"
result_operator = "="
readout_value = 10

[[record]]
smiles_record = "c1ccc(-c2[nH]c(-c3ccccc3)c3c2C2CCC3C2)cc1"
result_operator = "="
readout_value = 80

[[record]]
smiles_record = "c1ccc([C@H]2N[C@H](c3ccccc3)c3ccccc32)cc1"
result_operator = "="
readout_value = 100

[[record]]
smiles_record = "c1ccc(-c2[nH]c(-c3ccccc3)c3c2C2CCC3CC2)cc1"
result_operator = ">"
readout_value = 40

[[record]]
smiles_record = "Fc1ccc(-c2[nH]c(-c3ccc(F)cc3)c3c2CCC3)cc1"
result_operator = ">"
readout_value = 80

[[record]]
smiles_record = "Fc1ccc(-c2[nH]c(-c3ccc(F)cc3)c3c2CCCC3)cc1"
result_operator = "="
readout_value = 50

[[record]]
smiles_record = "Clc1ccc(-c2[nH]c(-c3ccc(Cl)cc3)c3c2CCCC3)cc1"
result_operator = ">"
readout_value = 80

[[record]]
smiles_record = "Fc1ccc(-c2[nH]c(-c3ccc(F)cc3)c3c2C2CCC3CC2)cc1"
result_operator = ">"
readout_value = 20


---

Biological target: Prostaglandin G/H synthase 1 (Mus musculus, UniProt P22437)
Sequence (P22437 whole entry): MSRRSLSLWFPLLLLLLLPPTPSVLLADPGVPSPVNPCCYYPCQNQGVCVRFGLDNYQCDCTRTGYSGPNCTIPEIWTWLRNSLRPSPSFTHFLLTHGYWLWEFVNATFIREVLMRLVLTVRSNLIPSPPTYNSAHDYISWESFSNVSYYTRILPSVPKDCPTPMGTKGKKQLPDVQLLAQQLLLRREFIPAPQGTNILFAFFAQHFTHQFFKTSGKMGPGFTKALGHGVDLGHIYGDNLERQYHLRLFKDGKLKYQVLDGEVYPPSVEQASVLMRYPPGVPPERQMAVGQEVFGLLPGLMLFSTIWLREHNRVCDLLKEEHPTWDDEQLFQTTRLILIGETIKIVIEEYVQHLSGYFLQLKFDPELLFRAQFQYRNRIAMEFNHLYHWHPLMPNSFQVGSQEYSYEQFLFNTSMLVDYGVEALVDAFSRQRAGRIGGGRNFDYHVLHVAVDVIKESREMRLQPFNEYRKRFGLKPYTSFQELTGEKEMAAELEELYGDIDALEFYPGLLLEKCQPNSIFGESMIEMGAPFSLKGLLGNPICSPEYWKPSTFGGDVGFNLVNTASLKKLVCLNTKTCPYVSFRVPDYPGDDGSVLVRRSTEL
Recorded measurements of IC50, one per entry
readout: IC50

[[record]]
molecule = "c1ccc(-c2sc(-c3ccccc3)c3ccccc23)cc1"
tested_on = "Prostaglandin G/H synthase 1 (Mus musculus, UniProt P22437)"
readout_value = "1000 nM"

[[record]]
molecule = "c1ccc(-c2[nH]c(-c3ccccc3)c3c2CCCC3)cc1"
tested_on = "Prostaglandin G/H synthase 1 (Mus musculus, UniProt P22437)"
readout_value = "100 nM"

[[record]]
molecule = "CC1Cc2c(-c3ccccc3)[nH]c(-c3ccccc3)c2CC1C (centres undefined)"
tested_on = "Prostaglandin G/H synthase 1 (Mus musculus, UniProt P22437)"
readout_value = "1000 nM"

[[record]]
molecule = "c1ccc([C@H]2N[C@H](c3ccccc3)c3ccccc32)cc1"
tested_on = "Prostaglandin G/H synthase 1 (Mus musculus, UniProt P22437)"
readout_value = "> 2500 nM"


---

assay: Gastric toxicity of the compound.
readout: Gastric score

[[record]]
smiles_record = "Cc1ccc(-c2cc(C(F)(F)F)nn2-c2ccc(S(N)(=O)=O)cc2)cc1"
readout_value = 0.7

[[record]]
smiles_record = "Fc1ccc(-c2[nH]c(-c3ccc(F)cc3)c3c2C2CCC3C2)cc1"
readout_value = 0.3

[[record]]
smiles_record = "Fc1ccc(-c2[nH]c(-c3ccc(F)cc3)c3c2CCC3)cc1"
readout_value = 0.7

[[record]]
smiles_record = "COc1ccc2c(c1)c(CC(=O)O)c(C)n2C(=O)c1ccc(Cl)cc1"
readout_value = 2.4

[[record]]
smiles_record = "c1ccc(-c2[nH]c(-c3ccccc3)c3c2C2CCC3C2)cc1"
readout_value = 0.3

[[record]]
smiles_record = "Fc1ccc(-c2[nH]c(-c3ccc(F)cc3)c3c2C2CCC3CC2)cc1"
readout_value = 0.3


---

species: Mus musculus; assay: Compound was evaluated for its effective dose to inhibit exudate PGE-2
readout: ED50 (mg/kg)

[[record]]
smiles_record = "Fc1ccc(-c2[nH]c(-c3ccc(F)cc3)c3c2CCCC3)cc1"
result_operator = "="
readout_value = 20

[[record]]
smiles_record = "Clc1ccc(-c2[nH]c(-c3ccc(Cl)cc3)c3c2CCCC3)cc1"
result_operator = "="
readout_value = 20

[[record]]
smiles_record = "c1ccc(-c2[nH]c(-c3ccccc3)c3c2CCC3)cc1"
result_operator = "="
readout_value = 20

[[record]]
smiles_record = "c1ccc(-c2[nH]c(-c3ccccc3)c3c2CCCC3)cc1"
result_operator = "="
readout_value = 20

[[record]]
smiles_record = "Fc1ccc(-c2[nH]c(-c3ccc(F)cc3)c3c2C2CCC3CC2)cc1"
result_operator = "="
readout_value = 3.5

[[record]]
smiles_record = "c1ccc(-c2[nH]c(-c3ccccc3)c3c2C2CCC3C2)cc1"
result_operator = "="
readout_value = 20

[[record]]
smiles_record = "c1ccc([C@H]2N[C@H](c3ccccc3)c3ccccc32)cc1"
result_operator = "="
readout_value = 100

[[record]]
smiles_record = "c1ccc(-c2[nH]c(-c3ccccc3)c3c2C2CCC3CC2)cc1"
result_operator = ">"
readout_value = 40

[[record]]
smiles_record = "Fc1ccc(-c2[nH]c(-c3ccc(F)cc3)c3c2CCC3)cc1"
result_operator = "="
readout_value = 20

[[record]]
smiles_record = "Fc1ccc(-c2[nH]c(-c3ccc(F)cc3)c3c2C2CCC3C2)cc1"
result_operator = "="
readout_value = 6.8


---

molecular target: Prostaglandin G/H synthase 1 (Mus musculus, UniProt P22437)
molecules and their reported IC50
readout: IC50

[[record]]
smiles_record = "c1ccc(-c2[nH]c(-c3ccccc3)c3c2CNC3)cc1"
readout_value = "1000 nM"

[[record]]
smiles_record = "C1=CC2CCC1c1c(-c3ccccc3)[nH]c(-c3ccccc3)c12"
readout_value = "> 1000 nM"

[[record]]
smiles_record = "Fc1ccc(-c2[nH]c(-c3ccc(F)cc3)c3c2C2CCC3CC2)cc1"
readout_value = "230 nM"

[[record]]
smiles_record = "c1ccc(-c2cn3c(c2-c2ccccc2)CCC3)cc1"
readout_value = "2500 nM"

[[record]]
smiles_record = "Fc1ccc(-c2[nH]c(-c3ccc(F)cc3)c3c2CCC3)cc1"
readout_value = "100 nM"

[[record]]
smiles_record = "Cc1ccc(-c2[nH]c(-c3ccc(C)cc3)c3c2CCCC3)cc1"
readout_value = "500 nM"

[[record]]
smiles_record = "CSc1ccc(-c2[nH]c(-c3ccc(SC)cc3)c3c2CCCC3)cc1"
readout_value = "500 nM"

[[record]]
smiles_record = "c1ccc(-c2cc3n(c2-c2ccccc2)CCC3)cc1"
readout_value = "< 1000 nM"

[[record]]
smiles_record = "c1ccc(-c2cc(-c3ccccc3)n3c2CCC3)cc1"
readout_value = "< 1000 nM"

[[record]]
smiles_record = "Fc1ccc(-c2[nH]c(-c3ccc(-n4ccnc4)cc3)c3c2CCCC3)cc1"
readout_value = "500 nM"

[[record]]
smiles_record = "CC1=C(C)Cc2c(-c3ccccc3)[nH]c(-c3ccccc3)c2C1"
readout_value = "> 100 nM"


---

target: Prostaglandin G/H synthase 2 (Mus musculus, UniProt Q05769)
Sequence (Q05769 whole entry): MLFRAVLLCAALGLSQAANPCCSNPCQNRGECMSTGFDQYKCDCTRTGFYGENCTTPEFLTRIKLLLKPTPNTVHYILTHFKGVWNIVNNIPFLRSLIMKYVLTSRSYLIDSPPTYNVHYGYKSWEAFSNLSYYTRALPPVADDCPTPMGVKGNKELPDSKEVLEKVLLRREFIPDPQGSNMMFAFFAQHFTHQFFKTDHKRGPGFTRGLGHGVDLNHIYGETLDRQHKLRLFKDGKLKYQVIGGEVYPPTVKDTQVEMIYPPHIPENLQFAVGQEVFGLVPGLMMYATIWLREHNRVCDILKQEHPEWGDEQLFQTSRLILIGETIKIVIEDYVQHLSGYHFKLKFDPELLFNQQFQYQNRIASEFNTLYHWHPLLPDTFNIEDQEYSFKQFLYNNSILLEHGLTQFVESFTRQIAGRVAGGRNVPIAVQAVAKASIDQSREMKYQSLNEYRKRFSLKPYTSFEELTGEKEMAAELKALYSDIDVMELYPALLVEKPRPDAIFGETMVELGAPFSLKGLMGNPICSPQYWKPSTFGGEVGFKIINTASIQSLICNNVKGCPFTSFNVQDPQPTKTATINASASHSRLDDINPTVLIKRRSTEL
pIC50: −log10 of the molar value.
We begin with a simple list: items and their reported pIC50.
readout: pIC50

[[record]]
compound = "CC(=O)Nc1cc(-c2[nH]c(-c3ccc(F)c(NC(C)=O)c3)c3c2C2CCC3C2)ccc1F"
readout = "pIC50"
readout_value = "< 7.00"

[[record]]
compound = "Clc1cc2c(cc1Cl)C(c1ccccc1)NC2c1ccccc1 (stereo not given)"
readout = "pIC50"
readout_value = "< 7.00"

[[record]]
compound = "Cn1c(-c2ccccc2)c2c(c1-c1ccccc1)CCCC2"
readout = "pIC50"
readout_value = "< 6.00"

[[record]]
compound = "c1cn(-c2ccc(-c3[nH]c(-c4ccc(-n5ccnc5)cc4)c4c3CCCC4)cc2)cn1"
readout = "pIC50"
readout_value = "< 7.00"

[[record]]
compound = "c1cc(-c2[nH]c(-c3ccncc3)c3c2C2CCC3C2)ccn1"
readout = "pIC50"
readout_value = "< 7.00"

